Recorded values, source the nanobody polyreactivity screen of Harvey et al. (2022).

Assay: yeast display, Sf9 membrane polyspecificity reagent, FACS + sequencing; frameworks hold sequencing errors
Assay metric: polyreactivity (PSR sort gate)

• QVQLVESGAGLVQAGGSLRLSCAASGSIFGSYAMGRDRQAPGKERELVAGITYRGSSTYYAESVKGRFTISRDNAKNTVYLQMNSLKPEATAVYYCAADPVFDEYDYWGQGTQVTVSS = low polyreactivity
• QVQLVESGGGIVQAGGSLRLSCAASGRTFKSYAMGWYRQAPGKERELVAAISRSGDRTYYADSVKGRFTISRDNAKNTVYLQMNSLKREDTAVYYCNARAVTGDRSDDYWGQGTHVTVSS = high polyreactivity
• QVQLVESGGGLVQAGGSLRLSCAASGFTFSNYAMGWYRQAPGKERELVAAISFRTGRTYYADSVKGRFTISRDNAKNTVYLQMNSLKPEDTAVYYCAAVVQSSEPVEYDYWGQGTQVTVSS = high polyreactivity
• QEQLVESGRGLVQAGGSLRVSCAASGSIFSVNGMGWYRQAPGKARELVAAIRRSGGSTYYADSVKGRFTISRDHAKNTVNLQRNSLKPEDTAVYYCAAPVRQSSYTRYDAWGQGTQVTVSS = high polyreactivity
• QVQLVESGGGLVQAGGSLRLICAASGSIFYHNGMGWYRQAPGKERELVAGISSTGSTYYADSVKGRVTLSRDNAKNTVYLQMNSLKPEDTAVYYCATDFGDIGDDAHSLGYDYWGQGTQVTVSS = low polyreactivity

Batch request: polyreactivity (PSR sort gate) per item, same order as input.
1. QVQLVESGGGLVQAGGSLRLSCAASGRIFKHYAMGWSRQAPGKERELVAAITNGGRTNYADSVKGRFTISRDNAKNTVYLQMNSLKPADTAVYYGNSESSPPYSITKFDYWGQGTQVTVSS
2. QVQLVESGGGLVQAGGSLRLSCAASGSIFNGYAMGWYRQAPGKERELVAAISRRGGSTYYADSVKGRFTISRVNAKNTVYLQMISLKPEDTAVYYCAADPRRPLSPQLSDYWGQGTQVTVSS
3. QVQLVESGGGLVQAGGSLRLSSAASGRTFAVNAMGSYRQAPGKERELLAAISQRAGRTYYADSVKGRFTISRDNEKNTVYLQMNSLKPEDTAVYYCNVVGFRSRVGSRGYWGLGTQVTVSS
4. QVQLVESGGGLVQAGGSLRLSCAASGRTFGRNDMGWYRQAPGKERELLATITSGGSTNYADSVKGRFTISRDNAKNTVYLQMISLKPEDTAVYYCAAEFSPSRWAYSEGALRYNYWGQGTQVTVSS
5. QVQLVESGGGLVQAGGSLRLSCAASGSIFWNNAMGWYRQAPGKEREFVATITWSGDSTYYADSVKGRFTISRDNAKNTVYLQMNSLKPEDTAVYYCAALLDYSVADLYSHHVSRYYYWGQGTQVTVSS
6. QVQLVESGGGLVQAGGSLRLSCAASGRISDVYAMGWYRQAPGKERELVAVISWRGGTTRYADSVKGRFTISRDNAKNTVYLQMNSLKAEDTAVFYCAAKTVLWGQGTQVTVSS

a:
["low polyreactivity", "high polyreactivity", "high polyreactivity", "low polyreactivity", "low polyreactivity", "high polyreactivity"]

###

Assay: yeast display, Sf9 membrane polyspecificity reagent, FACS + sequencing; frameworks hold sequencing errors
Assay metric: polyreactivity (PSR sort gate)

The cases that follow already have their polyreactivity (PSR sort gate) on record.
* QVQLVESGGGLVQAGGSLRLSCAASGITLYEYAMGWYRQAPGKERELVAAMSTSGGRTRYADSVKGRFTISRDNAKNTVYLQMNSLKPEDTAVYYCNRLYGPGFKSVYGYDYWGQGTQVTVSS | high polyreactivity
* QVQLVESGGGLVQAGGSLRLSCAASGGTFTAYAMGWYIQAPGKERELVAAISASGDSTYYADSVKGRFTISRDIAKNTVYLQMNSLKPEDTAVYYCNADWYRTGRRGSDYWGQGTQVTVSS | low polyreactivity
* QVQLVDSGGGLVQAGGRLRLSCAASGRTFYRNAMGWDSQAPGKERELVAAITSGGSTYYADSVKGRFTISRDTAKNTGYLQMNSLKPEDTAVYYCAALRHALRYDYWGQGTQVTVSS | low polyreactivity
* QVQLVESGGGLVQAGGSLRISCAASGSNFIRYAKGWYRQAPGKEMELVAAIRWSAGSTSYADSVKGRFTISRDNAKNTVYLQMNSLKPEDTAVYYCAAGPDYGWRRYDYWGQGTQVTVSS | low polyreactivity
* QVQLVESGGGLVQAGGSLRLSCAASGGTFFVYAMGWSRPAPGKERELVAAISGSGGRTYYADSVKGRFTISRDNAKNTVYLQMNSLTPEDTAVYYCNATYLTRSTRLSDFDYWGQGTQVTVSS | high polyreactivity

Batch request: polyreactivity (PSR sort gate) per item, same order as input.
1. QVQLVESGGGLVQAGGSLRLSCAASGIIFWWYAMGWYRQAPGKERELVAAISGTGGSTYYADSVKGRFTISRDNAKNTVYLQMNSLKPEDTAVYYCAKRASPFWRGYDSWGQGTQVTVSS
2. QDQLVESGGGLVQAGGSLRLSCAASGLIFYGYVMGWYRQAPGKERELVAGISRNSGSTYYADSVKGRFTISRDNAKNTVYLQMNSLKPEDTAVYYCAALKFEAWAGEDYWGQGTQVTVSS
3. QVQLVDSGGGLVQAGGSLRLSCAASGSIIKRKAMGWYRQAPGKERELVASISSGGSTHYADSVKGRFTISRDNAKNTVYLQMNSLKPEDTAVYYCAATSIRWSVGSFRRDYWGQGTQVTVSS
4. QVQLVESGGGLVQAGGSLRLSCAASGRIIYTNAMGWYRQAPGKERELVAAINRSGGITYYADSVKGRFTISRDNAKNTVYLQMNSLKPEDTAVYYCAKDYSWASYNHDYWGQGTQVTVSS
5. QVQLVESGGGLVQAGGSLRLSCAASGRIFKFNAMGWYRQAPGKERELVAATWSGGRTSYADSVKGRFTISRDNAKNTVYLQMNSLKPEDTAVYYCNAADWIVVQYDYWGQGTQVTVSS
6. QDQLVESGGGLVQAGGSLRLSCAASGSIFTSYAMGWYRQAPGKERELVAAITGGDSTNYADSVKGRFTISRDNAKNTVYLQMNSLKPEDTAVYYCNAADPNYFDRDTHYYWGQGTQVTVSS

a:
1: low polyreactivity; 2: low polyreactivity; 3: low polyreactivity; 4: low polyreactivity; 5: low polyreactivity; 6: low polyreactivity

###

Experiment: yeast display, Sf9 membrane polyspecificity reagent, FACS + sequencing; frameworks hold sequencing errors
Assay metric: polyreactivity (PSR sort gate)

* QVHHVESGGGLVQAGGSLRLSCAASGSIFWTYAMGWYRQAPGKERELVAAITSGSSTKYADSVKGRFTISRDNAKNTVYLQMYSLKPEDTAVYYCNARSYRGYRGVFLYSGLLGSDYWGQGTQVTVSS | low polyreactivity
* QVQIVESGGVLVQAGGSLRLSCAASGSITYFNAMGWYRQAPGKERELVAAISYSGGSTYYADSVKGRFTISRDNAKNTVYLQMNSLKPEDTAVYYCAADRLIGWRKTYYYWGQGTQVTVSS | high polyreactivity
* QVQLVESGGGLVQAGGSLRLSCAASGRIFSRYAMGWYRQAPGKERELVATISSSRGGTSTNYADSVKGRFTISRDNAKNTVYLQMNSLKPEDTAVYYCNALYGRQIVDYDYWGQGTQVTVSS | low polyreactivity
* KVQLVESGGGLVQAGGSLRLSCAASGINCYYYAMGWYRQAPGKERELVAVISSSGGRTYYADSVKGRFTISRDNSKNTVYLQMNSLKPEDTAVYYCAARGYGATYDYWGQGTQVTVSS | high polyreactivity

Batch request: polyreactivity (PSR sort gate) per item, same order as input.
1. QVQLVESGGGLVQAGGSLRLSCAASGSTFTLNAMGWYRQAPGKERELVARISSGGGSTYYADSVNGRFTISRDNAKNTVYLQMNSLKPEDTAVYYCNAGNYRDKSYYWGQGTQVTVSS
2. QVQPVESGGGLVQAGGSLRLSCAASGFIFSSYAMGWYRQAPGKERELVAAITSGGSTNYADSVKGRFTISRDNAKNTVYLQMNSMKPEDTAVYYCATVPGGSWFFHWWSTGGDDEYWGQGTQVTVSS
3. QVHLVESGGGLFQAGGRLRLSCAAAGSTFPKYARGWYRQAPGKERELVAAISWSGDSTNYADSVKGRITISRDNAKNTVYVQMNSLKPEDTAVYYCAAYNFIHAGPWEYDYWGQGTQVTVSS
4. QVQLVESGGGLVQAGGSLRLSCAASGRTFWFNAMGWYRQAPGKERELVASITLSGGSTYYADSVKGRFTISRDNAKITVYLQMNSLKPEDTAVYYCAADQTVHISSYDYWGQGTQVTVSS
5. RVQLVESGGGLVQAGGSLRLSCAASGLIFYYNAMVWYRQAPGKERELVAAISTGGSTNYADSVKGRFTISRYNAKNTVYLQMNSLKPEDTAVYYCAAGTRKPYGYKMYYWGQGTQVTVSS

a:
["low polyreactivity", "low polyreactivity", "low polyreactivity", "low polyreactivity", "high polyreactivity"]

Batch request: polyreactivity (PSR sort gate) per item, same order as input.
1. QVQLEESGGRLVQAGGSLRLSCAASGSIFALYAMGWYRQAPGKERELVAAIDWSDGGTYYADSVKGRFTISRDNAKNTLYLQMNSLKPEDTAVYYCNRVYSTSRITQYEFDYWGQGTQVTVSS
2. QVQLVESGGGLFQAGGSLRLSCAASRLIFPLYAMGWYRKAPWKERELVAANTRGGSTYYADSVKGRLTISSDNANNTVYLQINSLKAEDTAVYDCNDELPVHWSWYDYWGQGTQVTVSS

a:
1. low polyreactivity
2. low polyreactivity
